The reader will find reported inhibition at 1 µM values listed item by item below.
target: S. aureus TrmD (Staphylococcus aureus); construct: made in house; host or cells: E. coli BL21; assay: nanoSAR direct-to-biology FP displacement screening of crude triazoles; type: binding; conditions: crude triazole at 1 μM, assuming full conversion; 500 nM TrmD, 10 nM tracer 4; read-out: % displaced tracer

| structure | study_target | unit_label | inhibition at 1 µM |
| --- | --- | --- | --- |
| O=c1[nH]cnc2[nH]cc(-c3cn(Cc4ccc5ncccc5c4)nn3)c12 | S. aureus TrmD (Staphylococcus aureus) | % | 98 |
| CNC(=O)CCn1cc(-c2c[nH]c3nc[nH]c(=O)c23)nn1 | S. aureus TrmD (Staphylococcus aureus) | % | 21 |
| O=c1[nH]cnc2[nH]cc(-c3cn(-c4cccc5ncccc45)nn3)c12 | S. aureus TrmD (Staphylococcus aureus) | % | 20 |
| Cc1ccc2c(c1)[C@H](n1cc(-c3c[nH]c4nc[nH]c(=O)c34)nn1)CCC2 | S. aureus TrmD (Staphylococcus aureus) | % | 27 |

====

The reader will find reported Kd values listed item by item below.
biological target: S. aureus TrmD (Staphylococcus aureus, UniProt Q2FZ43); construct: made in house; host or cells: E. coli BL21; assay: Fluorescence polarization (FP) assay, tracer 4, S. aureus TrmD; type: binding; conditions: apparent affinity, purified compound, 500 nM TrmD, 10 nM tracer 4; read-out: KD S. aureus TrmD (FP displacement assay)

| compound | comparison_symbol | Kd [nM] |
| --- | --- | --- |
| O=C(/N=C(\NCCn1cc(-c2c[nH]c3nc[nH]c(=O)c23)nn1)NC(=O)OCc1ccccc1)OCc1ccccc1 | > | 100000 |
| CC(C)(C)OC(=O)/N=C(\NCCn1cc(-c2c[nH]c3nc[nH]c(=O)c23)nn1)NC(=O)OC(C)(C)C | = | 19800 |
| N[C@@H]1CCC[C@@H]1Cn1cc(-c2c[nH]c3nc[nH]c(=O)c23)nn1 | = | 1620 |
| O=c1[nH]cnc2[nH]cc(-c3cn(CC4CCC5C(CC4)C5(F)F)nn3)c12 (centres unmarked) | = | 1050 |
| CC(=O)NCCCn1cc(-c2c[nH]c3nc[nH]c(=O)c23)nn1 | = | 10400 |
| C#Cc1c[nH]c2nc[nH]c(=O)c12 | > | 100000 |
| O=c1[nH]cnc2[nH]cc(-c3cn(Cc4ccc5ncccc5c4)nn3)c12 | = | 720 |
| N#Cc1cccc(Cn2cc(-c3c[nH]c4nc[nH]c(=O)c34)nn2)c1 | = | 1820 |

====

The reader will find reported inhibition at 1 µM values listed item by item below.
Biological target: S. aureus TrmD (Staphylococcus aureus, UniProt Q2FZ43)
Construct: made in house; host or cells: E. coli BL21
Sequence (Q2FZ43 1-245): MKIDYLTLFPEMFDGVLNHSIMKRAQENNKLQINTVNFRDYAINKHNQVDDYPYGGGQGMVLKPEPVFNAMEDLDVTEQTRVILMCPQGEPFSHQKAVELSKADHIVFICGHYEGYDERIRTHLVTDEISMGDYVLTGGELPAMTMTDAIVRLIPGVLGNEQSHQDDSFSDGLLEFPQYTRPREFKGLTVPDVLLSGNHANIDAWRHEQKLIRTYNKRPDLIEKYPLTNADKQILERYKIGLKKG
Test: nanoSAR direct-to-biology FP displacement screening of crude triazoles
Assay type: binding
Details: crude triazole at 1 μM, assuming full conversion; 500 nM TrmD, 10 nM tracer 4; read-out: % displaced tracer

| structure | inhibition at 1 µM [%] |
| --- | --- |
| CC(C)n1cc(-c2c[nH]c3nc[nH]c(=O)c23)nn1 | 23 |
| O=c1[nH]cnc2[nH]cc(-c3cn(C4CNC4)nn3)c12 | 42 |
| O=c1[nH]cnc2[nH]cc(-c3cn(S(=O)(=O)c4ccc5c(c4)CCO5)nn3)c12 | -1.83 |
| O=c1[nH]cnc2[nH]cc(-c3cn([C@@H]4CC[C@H]4F)nn3)c12 | 21 |

====

biological target: S. aureus TrmD (Staphylococcus aureus, UniProt Q2FZ43); construct: made in house; host or cells: E. coli BL21; assay: nanoSAR direct-to-biology FP displacement screening of crude triazoles; assay type: binding; conditions: crude triazole at 1 μM, assuming full conversion; 500 nM TrmD, 10 nM tracer 4; read-out: % displaced tracer
The reader will find reported inhibition at 1 µM values listed item by item below.

| structure | study_target | unit_label | inhibition at 1 µM |
| --- | --- | --- | --- |
| O=c1[nH]cnc2[nH]cc(-c3cn(Cc4cc(C5CC5)no4)nn3)c12 | S. aureus TrmD (Staphylococcus aureus, UniProt Q2FZ43) | % | 77 |
| CC(C)Cn1cc(-c2c[nH]c3nc[nH]c(=O)c23)nn1 | S. aureus TrmD (Staphylococcus aureus, UniProt Q2FZ43) | % | 1.22 |
| O=c1[nH]cnc2[nH]cc(-c3cn(Cc4cnn(-c5ccccc5)c4)nn3)c12 | S. aureus TrmD (Staphylococcus aureus, UniProt Q2FZ43) | % | 81 |
| CC(CO)(CO)Cn1cc(-c2c[nH]c3nc[nH]c(=O)c23)nn1 | S. aureus TrmD (Staphylococcus aureus, UniProt Q2FZ43) | % | 67 |
| O=C1CCC[C@@H](Cn2cc(-c3c[nH]c4nc[nH]c(=O)c34)nn2)N1 | S. aureus TrmD (Staphylococcus aureus, UniProt Q2FZ43) | % | 75 |
| C[C@H](c1ccccc1F)n1cc(-c2c[nH]c3nc[nH]c(=O)c23)nn1 | S. aureus TrmD (Staphylococcus aureus, UniProt Q2FZ43) | % | 50 |
| N#Cc1cc(Cl)ccc1-n1cc(-c2c[nH]c3nc[nH]c(=O)c23)nn1 | S. aureus TrmD (Staphylococcus aureus, UniProt Q2FZ43) | % | 0 |
| Cc1nc2cc(-n3cc(-c4c[nH]c5nc[nH]c(=O)c45)nn3)ccc2s1 | S. aureus TrmD (Staphylococcus aureus, UniProt Q2FZ43) | % | 26 |
| O=c1[nH]cnc2[nH]cc(-c3cn(CCCN4CCCC4)nn3)c12 | S. aureus TrmD (Staphylococcus aureus, UniProt Q2FZ43) | % | 40 |
| O=c1[nH]cnc2[nH]cc(-c3cn([C@@H]4CCCc5cccnc54)nn3)c12 | S. aureus TrmD (Staphylococcus aureus, UniProt Q2FZ43) | % | 18 |
| Cc1ccc([C@@H](O)Cn2cc(-c3c[nH]c4nc[nH]c(=O)c34)nn2)cc1 | S. aureus TrmD (Staphylococcus aureus, UniProt Q2FZ43) | % | 65 |
| O=C(O)c1ccc(Cn2cc(-c3c[nH]c4nc[nH]c(=O)c34)nn2)cc1 | S. aureus TrmD (Staphylococcus aureus, UniProt Q2FZ43) | % | 43 |
| O=c1[nH]cnc2[nH]cc(-c3cn(CCCO)nn3)c12 | S. aureus TrmD (Staphylococcus aureus, UniProt Q2FZ43) | % | 32 |
| O=c1[nH]cnc2[nH]cc(-c3cn(Cc4cn5ccccc5n4)nn3)c12 | S. aureus TrmD (Staphylococcus aureus, UniProt Q2FZ43) | % | 46 |
| Cn1ccc(-n2cc(-c3c[nH]c4nc[nH]c(=O)c34)nn2)n1 | S. aureus TrmD (Staphylococcus aureus, UniProt Q2FZ43) | % | 25 |
| CC(C)(C)OC(=O)N1CC[C@H](C2CC2)[C@H]1Cn1cc(-c2c[nH]c3nc[nH]c(=O)c23)nn1 | S. aureus TrmD (Staphylococcus aureus, UniProt Q2FZ43) | % | 52 |

====

biological target: S. aureus TrmD (Staphylococcus aureus, UniProt Q2FZ43); construct: made in house; host or cells: E. coli BL21; experiment: nanoSAR direct-to-biology FP displacement screening of crude triazoles; format: binding; settings: crude triazole at 1 μM, assuming full conversion; 500 nM TrmD, 10 nM tracer 4; read-out: % displaced tracer

| molecule | unit_label | inhibition at 1 µM |
| --- | --- | --- |
| O=c1[nH]cnc2[nH]cc(-c3cn(CCN4CCCC4)nn3)c12 [Compound 01A04] | % | 22 |
| O=c1[nH]cnc2[nH]cc(-c3cn([C@@H]4CCc5cc(Cl)ccc54)nn3)c12 [Compound 01C03] | % | 72 |
| O=C1CC[C@@H](Cn2cc(-c3c[nH]c4nc[nH]c(=O)c34)nn2)O1 [Compound 04E02] | % | 22 |
| Cn1cc(Cn2cc(-c3c[nH]c4nc[nH]c(=O)c34)nn2)cn1 [Compound 01F04] | % | 57 |
| O=c1[nH]cnc2[nH]cc(-c3cn(Cc4cnc(C(F)(F)F)s4)nn3)c12 [Compound 01F06] | % | 72 |
| CN(C)c1ccc(-n2cc(-c3c[nH]c4nc[nH]c(=O)c34)nn2)cc1 [Compound 01E01] | % | 33 |
| CCOCCn1cc(-c2c[nH]c3nc[nH]c(=O)c23)nn1 [Compound 01B12, O=C1NC=NC=2NC=C(C=3N=NN(C3)CCOCC)C12] | % | 21 |
| Cc1c[nH]nc1Cn1cc(-c2c[nH]c3nc[nH]c(=O)c23)nn1 [Compound 04G01] | % | 87 |
| O=c1[nH]cnc2[nH]cc(-c3cn(C[C@@H]4CCOC4)nn3)c12 [Compound 02D06] | % | 26 |
| CS(=O)(=O)NC(=O)Cn1cc(-c2c[nH]c3nc[nH]c(=O)c23)nn1 [Compound 01G12] | % | 27 |
| O=c1[nH]cnc2[nH]cc(-c3cn(C[C@H]4C[C@@H]5C[C@@H]5C4)nn3)c12 [Compound 03A08] | % | 76 |
| NCCOCCn1cc(-c2c[nH]c3nc[nH]c(=O)c23)nn1 [Compound 02F12] | % | 39 |
| O=c1[nH]cnc2[nH]cc(-c3cn(C[C@H](O)Cc4ccccc4)nn3)c12 [Compound 03D03] | % | 39 |
| NCc1cccc(-n2cc(-c3c[nH]c4nc[nH]c(=O)c34)nn2)c1 [Compound 03G11] | % | 32 |
| O=c1[nH]cnc2[nH]cc(-c3cn(CCCN4CCC(C(F)(F)F)CC4)nn3)c12 [Compound 02D01] | % | 23 |
| CN(CCn1cc(-c2c[nH]c3nc[nH]c(=O)c23)nn1)Cc1cccc(F)c1 [Compound 02H12] | % | 65 |
| COc1ccc(C(F)(F)F)cc1-n1cc(-c2c[nH]c3nc[nH]c(=O)c23)nn1 [Compound 02A04] | % | 20 |

Recorded values, source paper PMC12751012.
